Data origin: patent US12065436B2

Can you tell me pIC50 for the items I'm about to list?
Biological target: bovine cardiac myofibrils (full-length cardiac myosin ATPase in the native sarcomere) (Bos taurus (Bovine), UniProt Q9BE39)
Sequence (Q9BE39 whole entry): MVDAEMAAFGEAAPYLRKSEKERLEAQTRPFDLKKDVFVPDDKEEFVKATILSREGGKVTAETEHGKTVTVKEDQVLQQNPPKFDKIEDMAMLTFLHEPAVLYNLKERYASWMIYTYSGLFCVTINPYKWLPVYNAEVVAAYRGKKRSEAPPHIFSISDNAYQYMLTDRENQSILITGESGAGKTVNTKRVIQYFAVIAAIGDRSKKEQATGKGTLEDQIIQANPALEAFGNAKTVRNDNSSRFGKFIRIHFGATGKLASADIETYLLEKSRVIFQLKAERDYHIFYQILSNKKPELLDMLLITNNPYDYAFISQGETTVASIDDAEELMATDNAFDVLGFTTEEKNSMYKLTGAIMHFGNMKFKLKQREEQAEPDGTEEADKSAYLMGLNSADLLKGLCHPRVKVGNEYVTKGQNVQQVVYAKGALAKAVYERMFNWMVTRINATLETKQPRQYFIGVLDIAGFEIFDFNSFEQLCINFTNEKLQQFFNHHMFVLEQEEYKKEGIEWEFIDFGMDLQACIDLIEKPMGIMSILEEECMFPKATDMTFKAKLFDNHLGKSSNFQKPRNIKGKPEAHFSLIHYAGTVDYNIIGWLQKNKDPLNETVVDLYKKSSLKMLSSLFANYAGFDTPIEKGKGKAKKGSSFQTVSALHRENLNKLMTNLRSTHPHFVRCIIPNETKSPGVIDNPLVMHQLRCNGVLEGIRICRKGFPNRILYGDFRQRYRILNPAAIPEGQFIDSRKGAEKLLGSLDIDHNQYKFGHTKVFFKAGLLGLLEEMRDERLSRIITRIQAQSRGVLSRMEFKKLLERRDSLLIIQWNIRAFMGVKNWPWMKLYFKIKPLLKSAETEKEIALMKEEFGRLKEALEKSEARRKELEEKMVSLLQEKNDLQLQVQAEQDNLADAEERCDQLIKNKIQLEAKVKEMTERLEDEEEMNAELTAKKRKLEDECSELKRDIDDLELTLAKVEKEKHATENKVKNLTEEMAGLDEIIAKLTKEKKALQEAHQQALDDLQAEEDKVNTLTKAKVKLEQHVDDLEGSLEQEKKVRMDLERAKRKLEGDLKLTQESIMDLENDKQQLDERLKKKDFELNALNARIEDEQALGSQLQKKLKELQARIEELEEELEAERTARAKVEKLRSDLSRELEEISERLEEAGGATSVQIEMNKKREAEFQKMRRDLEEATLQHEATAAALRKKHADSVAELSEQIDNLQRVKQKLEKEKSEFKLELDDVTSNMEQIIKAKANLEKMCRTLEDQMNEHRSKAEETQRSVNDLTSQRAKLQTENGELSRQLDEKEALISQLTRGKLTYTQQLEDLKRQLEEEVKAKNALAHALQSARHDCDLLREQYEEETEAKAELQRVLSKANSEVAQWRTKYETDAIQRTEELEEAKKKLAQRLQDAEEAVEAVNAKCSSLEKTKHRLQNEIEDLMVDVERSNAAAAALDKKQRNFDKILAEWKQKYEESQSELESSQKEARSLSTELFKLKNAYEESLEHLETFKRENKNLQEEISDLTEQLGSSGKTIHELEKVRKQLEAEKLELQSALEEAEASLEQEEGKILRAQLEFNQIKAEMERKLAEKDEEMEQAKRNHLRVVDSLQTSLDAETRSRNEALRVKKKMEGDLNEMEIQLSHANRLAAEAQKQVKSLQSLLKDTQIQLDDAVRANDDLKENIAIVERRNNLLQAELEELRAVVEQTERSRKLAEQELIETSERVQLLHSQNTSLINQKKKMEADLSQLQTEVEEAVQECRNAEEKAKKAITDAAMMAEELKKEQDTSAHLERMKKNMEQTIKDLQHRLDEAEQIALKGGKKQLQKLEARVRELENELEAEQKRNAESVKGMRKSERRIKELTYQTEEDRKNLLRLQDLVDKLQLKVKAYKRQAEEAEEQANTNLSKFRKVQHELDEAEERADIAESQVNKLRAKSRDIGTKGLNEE
Sequence (P85100 whole entry partner): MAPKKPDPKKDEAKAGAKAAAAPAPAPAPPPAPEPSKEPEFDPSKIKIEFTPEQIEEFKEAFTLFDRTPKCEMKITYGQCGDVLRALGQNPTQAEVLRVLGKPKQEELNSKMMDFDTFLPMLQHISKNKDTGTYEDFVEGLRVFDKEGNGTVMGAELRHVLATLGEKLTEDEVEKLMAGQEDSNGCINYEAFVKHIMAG
Sequence (Q3SZE5 whole entry partner): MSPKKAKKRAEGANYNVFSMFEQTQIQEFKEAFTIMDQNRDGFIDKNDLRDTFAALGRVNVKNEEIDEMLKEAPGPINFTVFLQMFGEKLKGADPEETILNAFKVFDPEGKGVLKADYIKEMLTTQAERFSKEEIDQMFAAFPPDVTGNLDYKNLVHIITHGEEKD
Test: Skinned bovine cardiac myofibril ATPase assay (PK/LDH-coupled)
Format: biochemical
Settings: Ca2+ activating to 75% of maximal rate, read-out: CDMF75 IC50
Give only the number. pIC50 is defined as minus log10 of concentration in molar units.

Report pIC50, nothing else, for this compound: CCOC(=O)c1cc(C(=O)N[C@@H]2CCc3cc(-c4noc(CC)n4)ccc32)ccn1
5.46

Report pIC50, nothing else, for this compound: Cc1cc(C(=O)N[C@@H]2COc3cc(-c4noc(C)n4)ccc32)on1
5.49

Report pIC50, nothing else, for this compound: Cc1nn(C)cc1C(=O)NC1CCc2cc(-c3noc(C(F)F)n3)ccc21 (stereo not shown)
5.47

Report pIC50, nothing else, for this compound: COCc1nc(-c2ccc3c(c2)CC[C@H]3NC(=O)c2cnn(CCO)c2C)no1
5.15

Report pIC50, nothing else, for this compound: O=C(N[C@@H]1CCc2cc(-c3noc(C(F)F)n3)ccc21)c1ccnc(C(F)F)c1
5.59

Report pIC50, nothing else, for this compound: CCc1nc(-c2ccc3c(c2)CC[C@H]3NC(=O)c2ccc(=O)n(CC)c2)no1
5.24

Report pIC50, nothing else, for this compound: Cc1ncoc1C(=O)N[C@@H]1COc2cc(-c3noc(C(F)F)n3)ccc21
6.15

Report pIC50, nothing else, for this compound: Cn1cnnc1C(=O)N[C@@H]1CCc2cc(-c3noc(C(F)F)n3)ccc21
4.63

Report pIC50, nothing else, for this compound: CC(=O)N[C@@H]1CCc2cc(-c3noc(C4CC4)n3)ccc21
5.33

Report pIC50, nothing else, for this compound: Cc1nc(-c2ccc3c(c2)CCC3NC(=O)c2cnoc2C)no1 (stereo not shown)
5.38

Report pIC50, nothing else, for this compound: CCc1nc(-c2ccc3c(c2)CC[C@H]3NC(=O)c2cc(C)ncc2F)no1
5.12

Report pIC50, nothing else, for this compound: O=C(N[C@@H]1CCc2cc(-c3noc(C(F)F)n3)ccc21)C1CC1
4.95

Report pIC50, nothing else, for this compound: O=C(N[C@@H]1CCc2cc(-c3noc(C(F)F)n3)ccc21)c1ccnc(CO)c1 [Compound 665]
5.74

Report pIC50, nothing else, for this compound: CCc1nc(-c2ccc3c(c2)CC[C@H]3NC(=O)c2cn[nH]c2)no1
5.96

Report pIC50, nothing else, for this compound: Cc1nc(-c2ccc3c(c2)CCC3NC(=O)Nc2cccnn2)no1 (stereo not shown)
5.11

----------
Can you tell me pIC50 for the items I'm about to list?
Biological target: bovine cardiac myofibrils (full-length cardiac myosin ATPase in the native sarcomere) (Bos taurus (Bovine), UniProt Q9BE39)
Assay: Skinned bovine cardiac myofibril ATPase assay (PK/LDH-coupled)
Conditions: Ca2+ activating to 75% of maximal rate, read-out: CDMF75 IC50
Give only the number. pIC50 is defined as minus log10 of concentration in molar units.

Report pIC50, nothing else, for this compound: Cc1noc(-c2ccc3c(c2)CC[C@H]3NC(=O)c2ccnc(C(F)F)c2)n1 [Compound 716]
5.23

Report pIC50, nothing else, for this compound: Cc1cc(C(=O)NC2COc3cc(-c4noc(C)n4)ccc32)ccn1 (stereo not shown) [Compound 18]
5.17

Report pIC50, nothing else, for this compound: CCc1nc(-c2ccc3c(c2)OC[C@H]3NC(=O)N2CC[C@H](O)C2)no1 [Compound 739]
4.62

Report pIC50, nothing else, for this compound: Cc1nc(-c2ccc3c(c2)CCC3NC(=O)c2cn(C)nc2C)no1 (stereo not shown) [Compound 55]
5.17

Report pIC50, nothing else, for this compound: Cc1nc(-c2ccc3c(c2)OC[C@H]3NC(=O)c2nnn(C)n2)no1 [Compound 200]
4.95

Report pIC50, nothing else, for this compound: CC(C)c1nc(-c2ccc3c(c2)CC[C@H]3NC(=O)C(F)F)no1 [Compound 438]
4.80

Report pIC50, nothing else, for this compound: CCc1nc(-c2ccc3c(c2)OCCC3NC(=O)c2cnn(C)c2)no1 (stereo not shown) [Compound 534]
4.87

----------
Target: bovine cardiac myofibrils (full-length cardiac myosin ATPase in the native sarcomere) (Bos taurus (Bovine), UniProt Q9BE39)
Experiment: Skinned bovine cardiac myofibril ATPase assay (PK/LDH-coupled)
Details: Ca2+ activating to 75% of maximal rate, read-out: CDMF75 IC50
Can you tell me pIC50 for the items I'm about to list?
Give only the number. pIC50 is defined as minus log10 of concentration in molar units.

Report pIC50, nothing else, for this compound: CCc1nc(-c2ccc3c(c2)CC[C@H]3NC(=O)c2cccnc2)no1 [Compound 624]
5.82

Report pIC50, nothing else, for this compound: COC(=O)N[C@@H]1CCc2cc(-c3noc(C(F)F)n3)ccc21 [Compound 282]
5.72

Report pIC50, nothing else, for this compound: Cc1nc(-c2ccc3c(c2)CCC3NC(=O)c2cnc(C)n2C)no1 (stereo not drawn) [Compound 45]
5.12

Report pIC50, nothing else, for this compound: [2H]C([2H])([2H])C(=O)N[C@@H]1CCc2cc(-c3noc(CC)n3)ccc21 [Compound 446]
5.59

Report pIC50, nothing else, for this compound: O=C(NC1CCc2cc(-c3noc(C(F)F)n3)ccc21)c1cn[nH]c1 (stereo not drawn) [Compound 50]
5.28

Report pIC50, nothing else, for this compound: Cn1nnnc1C(=O)N[C@@H]1CCc2cc(-c3noc(C(F)F)n3)ccc21 [Compound 189]
5.29

----------
Target: bovine cardiac myofibrils (full-length cardiac myosin ATPase in the native sarcomere) (Bos taurus (Bovine), UniProt Q9BE39)
Test: Skinned bovine cardiac myofibril ATPase assay (PK/LDH-coupled)
Settings: Ca2+ activating to 75% of maximal rate, read-out: CDMF75 IC50
Can you tell me pIC50 for the items I'm about to list?
Give only the number. pIC50 is defined as minus log10 of concentration in molar units.

Report pIC50, nothing else, for this compound: CCc1nc(-c2ccc3c(c2)CC[C@H]3NC(=O)c2ccon2)no1 [Compound 586]
5.64

Report pIC50, nothing else, for this compound: Cn1nnc(C(=O)N[C@@H]2COc3cc(-c4noc(C(F)F)n4)ccc32)n1
5.14

Report pIC50, nothing else, for this compound: Cc1noc(C(=O)NC2CCc3cc(-c4noc(C)n4)ccc32)n1 (stereo not shown)
4.91

Report pIC50, nothing else, for this compound: COCc1nc(-c2ccc3c(c2)OCC3NC(=O)c2cc(C)nn2C)no1 (stereo not shown)
5.40

Report pIC50, nothing else, for this compound: COCc1nc(-c2ccc3c(c2)CC[C@H]3NC(=O)c2cc(C)nn2C)no1
5.66

Report pIC50, nothing else, for this compound: Cn1nccc1C(=O)N[C@@H]1CCc2cc(-c3noc(C4CCO4)n3)ccc21 (stereo partly shown)
5.42

Report pIC50, nothing else, for this compound: [2H]C([2H])([2H])c1nc(-c2ccc3c(c2)CC[C@H]3NC(=O)c2cc(C)nn2C)no1
5.59

Report pIC50, nothing else, for this compound: [2H]C([2H])([2H])c1noc(-c2ccc3c(c2)CC[C@H]3NC(=O)c2oncc2C)n1
5.54

----------
Target: bovine cardiac myofibrils (full-length cardiac myosin ATPase in the native sarcomere) (Bos taurus (Bovine), UniProt Q9BE39)
Experiment: Skinned bovine cardiac myofibril ATPase assay (PK/LDH-coupled)
Format: biochemical
Details: Ca2+ activating to 75% of maximal rate, read-out: CDMF75 IC50
pIC50: −log10 of the molar value.
testReadout: pIC50

Report pIC50, nothing else, for this compound: CCOC(=O)C(C)c1nc(-c2ccc3c(c2)CC[C@H]3NC(=O)c2nnn(C)n2)no1 (stereo partly drawn)
4.78

Report pIC50, nothing else, for this compound: Cn1nccc1C(=O)N[C@@H]1CCc2cc(-c3ccccn3)ccc21
< 4.41

Report pIC50, nothing else, for this compound: Cn1nccc1C(=O)N[C@H]1COc2cc(-c3noc(C4CC4)n3)ccc21
< 4.41

----------
Molecular target: bovine cardiac myofibrils (full-length cardiac myosin ATPase in the native sarcomere) (Bos taurus (Bovine), UniProt Q9BE39)
Assay: Skinned bovine cardiac myofibril ATPase assay (PK/LDH-coupled)
Assay type: biochemical
Details: Ca2+ activating to 75% of maximal rate, read-out: CDMF75 IC50
testReadout: pIC50
Give only the number. pIC50 is defined as minus log10 of concentration in molar units.

Report pIC50, nothing else, for this molecule: CCc1noc(-c2ccc3c(c2)CC[C@H]3NC(=O)c2nnn(C)n2)n1
5.77

Report pIC50, nothing else, for this molecule: Cc1ncc(C(=O)N[C@@H]2CCc3cc(-c4noc(C(F)F)n4)ccc32)o1
5.52

Report pIC50, nothing else, for this molecule: [2H]C([2H])([2H])c1nc(-c2ccc3c(c2)CC[C@H]3NC(=O)c2ocnc2C)no1
5.82

Report pIC50, nothing else, for this molecule: CCc1nc(-c2ccc3c(c2)CC[C@H]3NC(=O)c2ccno2)no1 [Compound 582]
5.89

Report pIC50, nothing else, for this molecule: Cc1noc(-c2ccc3c(c2)CC[C@H]3NC(=O)c2cnn(C)c2)n1
4.98

Report pIC50, nothing else, for this molecule: Cc1noc(-c2ccc3c(c2)CC[C@H]3NC(=O)c2nnc(C)o2)n1
5.21

Report pIC50, nothing else, for this molecule: Cc1cc(C(=O)N[C@@H]2CCc3cc(-c4nc(C(F)F)no4)ccc32)ccn1
5.24

Report pIC50, nothing else, for this molecule: CCOC(=O)N[C@@H]1CCc2cc(-c3noc(C(F)F)n3)ccc21
5.28

Report pIC50, nothing else, for this molecule: Cc1nc(-c2ccc3c(c2)OCC3NC(=O)c2nnn(C)n2)no1 (stereo not drawn)
4.62

Report pIC50, nothing else, for this molecule: [2H]C([2H])([2H])c1nc(-c2ccc3c(c2)CC[C@H]3NC(=O)c2cnc(C)o2)no1
5.28

Report pIC50, nothing else, for this molecule: COCCn1cc(C(=O)N[C@@H]2CCc3cc(-c4noc(C5CCC5)n4)ccc32)cn1
4.96

Report pIC50, nothing else, for this molecule: CCc1nc(-c2ccc3c(c2)CC[C@H]3NC(=O)c2nnn(C)c2C)no1
5.21

Report pIC50, nothing else, for this molecule: CC(CO)c1nc(-c2ccc3c(c2)CC[C@H]3NC(=O)c2nnn(C)n2)no1 (stereo partly drawn)
4.41

Report pIC50, nothing else, for this molecule: Cn1nccc1C(=O)N[C@@H]1CCc2cc(C#CC3CC3)ccc21
5.11

Report pIC50, nothing else, for this molecule: CCc1nc(-c2ccc3c(c2)CC[C@H]3NC(=O)N2CC[C@H](O)C2)no1
4.69

Report pIC50, nothing else, for this molecule: COCc1nc(-c2ccc3c(c2)CC[C@H]3NC(=O)c2cc(C(F)F)ccn2)no1
5.05

Report pIC50, nothing else, for this molecule: Cc1cc(C(=O)NC2CCc3cc(-c4nnn(C)n4)ccc32)ccn1 (stereo not drawn)
4.87

Report pIC50, nothing else, for this molecule: Cn1nccc1C(=O)N[C@@H]1COc2cc(-c3noc(C4CC4)n3)ccc21
6.00

Report pIC50, nothing else, for this molecule: CCc1nc(-c2ccc3c(c2)CC[C@H]3NC(=O)c2ccc(C)nc2)no1
5.52

Report pIC50, nothing else, for this molecule: Cc1nc(-c2ccc3c(c2)OC[C@H]3NC(=O)c2ccnc(C(C)O)c2)no1 (stereo partly drawn)
5.02
